Field: log10 of IC50. Provide a value for each of the compounds that follow.
- System: fibrin-induced microglia activation
- method notes: Image-based assay of fibrin-induced microglia activation (HTS and dose response)
- Assay type: cell-based, rat
- experimental context: Rattus norvegicus, Microglia, dose response, fibrin-induced microglia activation; read-out: Fibrin IC50
Structures can show the parent of a compound that is named as a salt.
# log10 transformed; quantity=IC50; unit=µM

The reported log10 of IC50 of the compound COc1ccc(-n2nc(CCC(=O)N(C)O)cc2-c2ccc(Cl)cc2)cc1 [Tepoxalin, reference compound] was 0.48

The reported log10 of IC50 of the compound NCCc1cc[nH]n1 [Betazole hydrochloride, reference compound] was 1.08

The reported log10 of IC50 of the compound CC(CN(C)C)CN1c2ccccc2CCc2ccccc21 (stereo not shown) [Trimipramine maleate, reference compound] was 0.85

The reported log10 of IC50 of the compound [H]/N=C(/NCCCCC)N/N=C/c1c[nH]c2ccc(OC)cc12 [Tegaserod maleate, reference compound] was 0.00

The reported log10 of IC50 of the compound CC(=O)OCC(=O)[C@@]1(O)[C@H](OC(C)=O)C[C@H]2[C@@H]3CCC4=CC(=O)C=C[C@]4(C)[C@@]3(F)[C@@H](O)C[C@@]21C [Triamcinolone diacetate, reference compound] was -1.40

The reported log10 of IC50 of the compound CN1CCN(CCCN2c3ccccc3Sc3ccc(C(F)(F)F)cc32)CC1 [Trifluoperazine dihydrochloride, reference compound] was 1.08

The reported log10 of IC50 of the compound CCCCC(=O)O[C@]1(C(=O)CO)[C@@H](C)C[C@H]2[C@@H]3CCC4=CC(=O)C=C[C@]4(C)[C@@]3(F)[C@@H](O)C[C@@]21C [Betamethasone valerate, reference compound] was 1.30

The reported log10 of IC50 of the compound CC(=O)OCC(=O)[C@@]1(OC(C)=O)[C@@H](C)C[C@H]2[C@@H]3C[C@H](F)C4=CC(=O)C=C[C@]4(C)[C@@]3(F)[C@@H](O)C[C@@]21C [Diflorasone diacetate, reference compound] was -2.00

The reported log10 of IC50 of the compound CC(=O)O[C@]1(C(C)=O)CC[C@H]2[C@@H]3C=C(C)C4=CC(=O)CC[C@]4(C)[C@H]3CC[C@@]21C [Megestrol acetate, reference compound] was 0.70

The reported log10 of IC50 of the compound CCCC(=O)O[C@]1(C(=O)CO)CC[C@H]2[C@@H]3CCC4=CC(=O)CC[C@]4(C)[C@H]3[C@@H](O)C[C@@]21C [Hydrocortisone butyrate, reference compound] was -1.70

The reported log10 of IC50 of the compound C=N[C@@H](C(=O)N[C@@H]1C(=O)N2[C@@H]1SC(C)(C)[C@@H]2C(=O)O)c1ccccc1 [Metampicillin sodium, reference compound] was 1.30

The reported log10 of IC50 of the compound CC(=O)OCC(=O)[C@@]1(O)CC[C@H]2[C@@H]3CCC4=CC(=O)C=C[C@]4(C)[C@@]3(Cl)[C@@H](Cl)C[C@@]21C [Dichlorisone acetate, reference compound] was -1.52

The reported log10 of IC50 of the compound COC(=O)Nc1nc2ccc(C(=O)c3ccccc3)cc2[nH]1 [Mebendazole, reference compound] was -0.70

The reported log10 of IC50 of the compound CC(CCc1ccc(O)cc1)NCC(O)c1ccc(O)cc1 (stereo not shown) [Ractopamine hydrochloride, reference compound] was 1.30

====

- Test system: LPS-induced microglia activation
- method notes: Image-based assay of LPS-induced microglia activation (HTS and dose response)
- Assay type: cell-based, rat
- experimental context: primary microglia HTS, LPS stimulation, activation = cell size >800 μm2
Where a name gives a salt, the structure may show the parent alone.
endpoint name: LPS % inhibition (%)
Return type: number; implicit unit %.

The reported LPS % inhibition of the compound N=C(N)N/N=C/c1c(Cl)cccc1Cl [Guanabenz Acetate] was −2

The reported LPS % inhibition of the compound COc1ccc(CN2CCN(C(c3ccc(F)cc3)c3ccc(F)cc3)CC2)c(OC)c1OC [Lomerizine, Lomerizine Dihydrochloride] was 8

The reported LPS % inhibition of the compound CC(=O)[C@@]1(O)CC[C@H]2[C@@H]3CCC4=CC(=O)CC[C@]4(C)[C@H]3CC[C@@]21C [Hydroxyprogesterone] was 33

The reported LPS % inhibition of the compound Br.COc1ccc2c3c1O[C@H]1C[C@@H](O)C=C[C@@]31CCN(C)C2 [Galanthamine Hydrobromide, Galantamine] was 9

The reported LPS % inhibition of the compound `FC(F)(F)COCC(F)(F)F` was 28

The reported LPS % inhibition of the compound N=C(N)N/N=C/c1c(Cl)cccc1Cl [Guanabenz] was −18

The reported LPS % inhibition of the compound CC(C)(C)NC[C@H](O)COc1cccc2c1CCCC2=O [Levobunolol Hydrochloride] was 12

The reported LPS % inhibition of the compound `OC[C@@H](O)[C@@H](O[C@@H]1O[C@H](CO)[C@H](O)[C@H](O)[C@H]1O)[C@H](O)[C@@H](O)CO` was 18

====

Field: LPS % cell toxicity. Provide a value for each of the compounds that follow.
- Test system: primary rat microglia
- experimental context: rat
Where a name gives a salt, the structure may show the parent alone.
Answer with the figure and its unit, nothing else.

The reported LPS % cell toxicity of the compound CCN(CC)Cc1cc(Nc2ccnc3cc(Cl)ccc23)ccc1O [Amodiaquine Dihydrochloride] was 85%

The reported LPS % cell toxicity of the compound `C=C[C@H]1C[N@@]2CC[C@H]1C[C@@H]2[C@@H](O)c1ccnc2ccc(OC)cc12` was 0%

The reported LPS % cell toxicity of the compound `Cc1cc(-c2ccc(/N=N/c3ccc4c(S(=O)(=O)O)cc(S(=O)(=O)O)c(N)c4c3O)c(C)c2)ccc1/N=N/c1ccc2c(S(=O)(=O)O)cc(S(=O)(=O)O)c(N)c2c1O` was 0%

The reported LPS % cell toxicity of the compound `Nc1nccs1` was 1%

The reported LPS % cell toxicity of the compound C1CCC(C(CC2CCCCN2)C2CCCCC2)CC1 (stereo not drawn) [Perhexiline maleate, reference compound] was 69%

The reported LPS % cell toxicity of the compound CC(O)C(=O)O (stereo not drawn) was 1%

The reported LPS % cell toxicity of the compound `Cc1nc2n(c(=O)c1CCN1CCC(c3noc4cc(F)ccc34)CC1)CCCC2` was 0%

The reported LPS % cell toxicity of the compound Clc1ccc(Cn2c(CN3CCCC3)nc3ccccc32)cc1 [Clemizole Hydrochloride] was 1%

The reported LPS % cell toxicity of the compound Oc1ccc(O)cc1 [Hydroquinone] was 0%

The reported LPS % cell toxicity of the compound `CCCCC[C@H](O)/C=C/[C@@H]1[C@@H](C/C=C\CCCC(=O)O)[C@@H](O)C[C@H]1O` was 0%

The reported LPS % cell toxicity of the compound `C#C[C@]1(O)CC[C@H]2[C@@H]3CCC4=CC(=O)CC[C@]4(C)[C@H]3CC[C@@]21C` was 1%

The reported LPS % cell toxicity of the compound `OC[C@@H](O)[C@H]1O[C@@H]2O[C@H](C(Cl)(Cl)Cl)O[C@@H]2[C@H]1O` was 0%

The reported LPS % cell toxicity of the compound CC1=C(C)C(=O)C(C(CCCCCC(=O)O)c2ccccc2)=C(C)C1=O (stereo not drawn) was 0%

The reported LPS % cell toxicity of the compound `Nc1ccc([As](=O)(O)O)cc1` was 0%

The reported LPS % cell toxicity of the compound `CC(C)(C)NC[C@H](O)c1ccc(O)c(CO)c1` was 0%

The reported LPS % cell toxicity of the compound `CN(C)c1ccc2nc3ccc(=[N+](C)C)cc-3sc2c1` was 1%

The reported LPS % cell toxicity of the compound CCC(=O)Oc1ccc2c(c1)CC[C@@H]1[C@@H]2CC[C@]2(C)[C@@H](OC(=O)CC)CC[C@@H]12 [Estradiol Dipropionate] was 1%

The reported LPS % cell toxicity of the compound `CC[N+](C)(C)c1cccc(O)c1` was 0%

====

Field: Fibrin % cell toxicity. Provide a value for each of the compounds that follow.
- Tested on: primary rat microglia
- method notes: Cell toxicity (dead cells, size <150 μm2) in coated fibrin (cFib) assay;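 note: share of dead cells sized under 150 µm2 at 10 µM in fibrin-stimulated microglia HTS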
- experimental context: primary microglia HTS, fibrin stimulation; decreased size (<150 μm^2) as marker of toxicity
Return type: number; implicit unit %.

The reported Fibrin % cell toxicity of the compound CC(=O)OCC(=O)[C@@]1(O)[C@@H](C)C[C@H]2[C@@H]3CCC4=CC(=O)C=C[C@]4(C)[C@@]3(F)[C@@H](O)C[C@@]21C [Betamethasone Acetate] was 3

The reported Fibrin % cell toxicity of the compound Cc1cccc(C)c1NC(=O)CN1CCCC1=O [Nefiracetam] was 0

The reported Fibrin % cell toxicity of the compound C=C1c2c(Cl)ccc(O)c2C(=O)C2=C(O)[C@]3(O)C(=O)C(C(N)=O)=C(O)[C@@H](N(C)C)[C@@H]3[C@@H](O)[C@H]12.O=C(O)c1cc(S(=O)(=O)O)ccc1O [Meclocycline Sulfosalicylate] was 1

Ref: patent US20210330611A1
